Test Method Notes: in vitro
Type: cell-based, sheep
Cond: sheep
For each of the molecules below, state its hemolysis at 1 h, 1000 μg/mL.
Kindly provide the numeric value in % only, without the unit symbol.

# lookup: hemolysis at 1 h, 1000 μg/mL of CNC(=S)NNS(=O)(=O)c1ccccc1 [WZ4]
88.4

# lookup: hemolysis at 1 h, 1000 μg/mL of CCCCNC(=S)NNS(=O)(=O)c1ccccc1 [WZ2]
27.9

# lookup: hemolysis at 1 h, 1000 μg/mL of O=S(=O)(NNC(=S)NC1CCCCC1)c1ccccc1 [WZ1]
18.4

# lookup: hemolysis at 1 h, 1000 μg/mL of CCCCCCNC(=S)NNS(=O)(=O)c1ccccc1 [WZ3]
43.2
